As shown below, each of these compounds has a reported viability at 25 µM value.
system: CCRF-CEM; test: Antiproliferative activity against human CCRF-CEM cells assessed as cell viability at 25 uM after 72 hrs by MTT assay; assay type: functional; conditions: read-out: Activity
Value expressed in %; do not type the unit.

Below: 2 compounds and their reported viability at 25 µM.
1. CC(Cn1cnc2c1c(=O)n(C)c(=O)n2C)OC(=O)Nc1ccccc1 (configuration not stated)	78.9
2. CC(Cn1cnc2c1c(=O)n(C)c(=O)n2C)OC(=O)N1c2ccccc2Sc2ccccc21 (configuration not stated)	105

viability at 25 µM recorded for this compound, Cc1ccc(C(=O)CC(=O)OC(C)Cn2cnc3c2c(=O)n(C)c(=O)n3C)cc1 (configuration not stated) , is 89.5

viability at 25 µM recorded for this compound, CC(Cn1cnc2c1c(=O)n(C)c(=O)n2C)OC(=O)C(c1ccccc1)c1ccccc1 (configuration not stated) , is 84.8

viability at 25 µM recorded for this compound, CC(Cn1cnc2c1c(=O)n(C)c(=O)n2C)OC(=O)CC(=O)c1ccccc1 (configuration not stated) , is 85.1

viability at 25 µM recorded for this compound, CC(Cn1cnc2c1c(=O)n(C)c(=O)n2C)OC(=O)C1c2ccccc2-c2ccccc21 (configuration not stated) , is 41.5

viability at 25 µM recorded for this compound, COC(C(=O)OC(C)Cn1cnc2c1c(=O)n(C)c(=O)n2C)c1ccc2ccccc2c1 (configuration not stated) , is 84.7

---

test system: Candida albicans; experiment: Growth inhibition of Candida albicans ATCC 90028 at 8 ug/ml incubated for 48 hrs at 35 degC by broth microdilution method relative to control; assay type: functional; conditions: ATCC 90028, 48 h, read-out: GI
As shown below, each of these compounds has a reported inhibition of growth at 8 µg/mL value.
Value expressed in %; do not type the unit.

1. CC(Cn1cnc2c1c(=O)n(C)c(=O)n2C)OC(=O)N1c2ccccc2Sc2ccccc21 (stereo not given)	99.2

inhibition of growth at 8 µg/mL recorded for this compound, CC(Cn1cnc2c1c(=O)n(C)c(=O)n2C)OC(=O)Nc1ccccc1 (stereo not given) , is 99.2

inhibition of growth at 8 µg/mL recorded for this compound, CC(Cn1cnc2c1c(=O)n(C)c(=O)n2C)OC(=O)Sc1ccccc1 (stereo not given) , is 99.2

inhibition of growth at 8 µg/mL recorded for this compound, CC(Cn1cnc2c1c(=O)n(C)c(=O)n2C)OC(=O)CC(=O)c1ccc(F)cc1 (stereo not given) , is 99.3

inhibition of growth at 8 µg/mL recorded for this compound, COC(C(=O)OC(C)Cn1cnc2c1c(=O)n(C)c(=O)n2C)c1ccc2ccccc2c1 (stereo not given) , is 99

---

As shown below, each of these molecules has a reported viability at 100 µM value.
test system: MCF7; experiment: Antiproliferative activity against human MCF7 cells assessed as cell viability at 100 uM after 72 hrs by MTT assay; format: functional; details: MCF7, 72 h, read-out: Activity

1. CC(Cn1cnc2c1c(=O)n(C)c(=O)n2C)OC(=O)N1c2ccccc2Sc2ccccc21 (stereo not drawn)	73.4%
2. COC(C(=O)OC(C)Cn1cnc2c1c(=O)n(C)c(=O)n2C)c1cccc2ccccc12 (stereo not drawn)	83.3%
3. COC(C(=O)OC(C)Cn1cnc2c1c(=O)n(C)c(=O)n2C)c1ccc2ccccc2c1 (stereo not drawn)	83.7%
4. CC(Cn1cnc2c1c(=O)n(C)c(=O)n2C)OC(=O)CC(=O)c1ccc(F)cc1 (stereo not drawn)	83.8%
5. CC(Cn1cnc2c1c(=O)n(C)c(=O)n2C)OCc1cn(CCCn2nc3c(Br)c(Br)c(Br)c(Br)c3n2)nn1 (stereo not drawn)	59.1%
6. CC(Cn1cnc2c1c(=O)n(C)c(=O)n2C)OC(=O)Sc1ccccc1 (stereo not drawn)	69.9%
7. CC(Cn1cnc2c1c(=O)n(C)c(=O)n2C)OCc1cn(-c2cccc3ccccc23)nn1 (stereo not drawn)	93.3%

Next up:
Record Cc1ccc(C(=O)CC(=O)OC(C)Cn2cnc3c2c(=O)n(C)c(=O)n3C)cc1 (stereo not drawn) / MCF7, viability at 100 µM recorded as 86.6%
